# TESTED_SYSTEM: UniProt P49841
# Sequence (P49841 whole entry): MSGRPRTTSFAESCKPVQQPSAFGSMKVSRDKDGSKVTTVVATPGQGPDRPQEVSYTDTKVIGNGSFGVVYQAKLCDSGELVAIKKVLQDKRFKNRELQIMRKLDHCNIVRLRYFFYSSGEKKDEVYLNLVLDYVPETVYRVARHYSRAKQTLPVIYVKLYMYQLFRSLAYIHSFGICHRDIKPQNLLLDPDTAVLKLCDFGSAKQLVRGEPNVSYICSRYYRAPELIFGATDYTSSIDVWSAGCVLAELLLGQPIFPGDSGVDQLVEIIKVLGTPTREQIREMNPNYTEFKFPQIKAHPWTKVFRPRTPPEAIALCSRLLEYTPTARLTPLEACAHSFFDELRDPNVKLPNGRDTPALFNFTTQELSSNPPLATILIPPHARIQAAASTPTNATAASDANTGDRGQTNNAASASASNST
RESULT_TYPE: IC50

> print(dat)
                                   compound   tested.system  result.type  endpoint.result
1  N#Cc1ccc2c(c1)C(c1ccc3c(n1)C(O)CCC3)C(=O)N2 (configuration not stated)  UniProt P49841         IC50         < 0.1 µM

// below: IC50 requested for another compound
Prompt: Quick check: IC50 on UniProt P49841, item N#Cc1ccc2c(c1)C(c1ccc3c(n1)CCCC3=O)C(=O)N2 (configuration not stated) ?
Completion: < 0.1 µM

Provenance of the data: ChEMBL document CHEMBL5725797
